Listed compounds paired with reported Predicted in vivo hepatic clearance, CLH
- Measurement Protocol: Metabolic stability, pooled human liver microsome incubations
- Experimental Parameters: pHLM, scaling factor 32 mg microsomal protein per gram liver
Quantity Name: Predicted in vivo hepatic clearance, CLH

Compound	Quantity Name	Result
C=CCCCn1cc(C(=O)N[C@@H](C(=O)OC)C(C)(C)C)c2ccccc21 [(R)-MDMB-4en-PICA (12)]	Predicted in vivo hepatic clearance, CLH	7.32 ± 0.70 mL/min/kg
COC(=O)[C@@H](NC(=O)c1nn(Cc2ccc(F)cc2)c2ccccc12)C(C)(C)C [(S)-MDMB-FUBINACA (6)]	Predicted in vivo hepatic clearance, CLH	0.54 ± 0.12 mL/min/kg
COC(=O)[C@H](NC(=O)c1cn(CCCCCF)c2ccccc12)C(C)(C)C [(R)-5F-MDMB-PICA (3)]	Predicted in vivo hepatic clearance, CLH	5.09 ± 0.04 mL/min/kg
COC(=O)[C@@H](NC(=O)c1nn(CCCCCF)c2ccccc12)C(C)(C)C [(S)-5F-MDMB-PINACA (2)]	Predicted in vivo hepatic clearance, CLH	3.18 mL/min/kg
